// reported pIC50 per item
Target: human DGAT1 (Homo sapiens)
Construct: made in house; host or cells: Sf9 cells (membrane preparation)
Sequence (O75907 1-488): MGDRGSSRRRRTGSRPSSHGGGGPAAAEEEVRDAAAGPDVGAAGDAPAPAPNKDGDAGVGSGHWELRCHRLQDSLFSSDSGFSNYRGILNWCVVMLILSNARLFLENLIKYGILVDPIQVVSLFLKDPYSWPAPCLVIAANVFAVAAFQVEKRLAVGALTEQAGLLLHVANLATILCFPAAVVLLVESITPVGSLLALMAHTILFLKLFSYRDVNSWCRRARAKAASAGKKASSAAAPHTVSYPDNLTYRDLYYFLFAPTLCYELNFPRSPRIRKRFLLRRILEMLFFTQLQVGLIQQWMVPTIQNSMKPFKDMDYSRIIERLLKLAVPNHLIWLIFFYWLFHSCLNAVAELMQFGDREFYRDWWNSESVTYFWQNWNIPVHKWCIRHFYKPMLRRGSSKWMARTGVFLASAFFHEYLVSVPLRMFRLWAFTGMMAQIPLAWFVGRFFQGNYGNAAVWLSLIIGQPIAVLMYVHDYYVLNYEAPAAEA
Assay: DGAT1 enzyme inhibition assay (membrane preparation, LC/MS/MS readout)
Assay type: biochemical
Details: inhibitory activity to human DGAT1, Table 1, values given as ranges
Experimental: The enzyme preparation used in this assay is a membrane preparation from Sf9 cells overexpressing human (His)6DGAT1. During all steps samples were chilled to 4° C. […] The re-suspended pellet was homogenized for 1 min using a Brinkman PT 10/35 homogenizer with a 20 mm generator. […] The protein concentration of the membrane preparation was quantified using BCA protein assay with 1% SDS. […] Samples were analyzed by LC/MS/MS using a Waters 1525 μLC and Quattro Micro API MS. […]
pIC50: −log10 of the molar value.
readout_label: pIC50

1. Cc1nc2cc(NC(=O)c3ccc4[nH]c(-c5c(Cl)cccc5Cl)cc4c3)ccc2s1 ... 4.52 to 6.00
2. CC(=O)Nc1ccc2nc(-c3c(Cl)cccc3Cl)[nH]c2c1 ... 4.52 to 6.00
3. COc1ccccc1CCNC(=O)c1ccc2nc(-c3c(Cl)cccc3Cl)oc2c1 ... 4.00 to 4.52
4. CCOc1cccc(CCNC(=O)c2ccc3nc(-c4c(Cl)cccc4Cl)[nH]c3c2)c1 ... > 6.00
